Entries and their cell killing Span, JVM-13 (CLL) cells
- SYSTEM TESTED: CD74 (human), P04233
- Sequence (P04233 whole entry): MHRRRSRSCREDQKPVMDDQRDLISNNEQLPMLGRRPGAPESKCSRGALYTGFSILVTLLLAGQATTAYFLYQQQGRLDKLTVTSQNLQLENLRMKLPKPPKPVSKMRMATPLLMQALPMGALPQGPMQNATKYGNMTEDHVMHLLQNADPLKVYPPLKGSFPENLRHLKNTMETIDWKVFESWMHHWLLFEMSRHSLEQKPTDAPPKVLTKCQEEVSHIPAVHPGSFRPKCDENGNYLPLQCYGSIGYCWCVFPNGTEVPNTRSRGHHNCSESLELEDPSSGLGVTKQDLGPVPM
- PROCEDURE DETAILS: cell-based or functional assay
Kindly answer with a numeric value in %, unit omitted.

// solved cases for cell killing Span, JVM-13 (CLL) cells follow
>>> value_reported("Conjugate E (anti-CD74 IgG-PEG4-MMAF conjugate) (antibody, V domains shown, here or on the partner: modified amino acid residue 30 (pAMF) according to Example 2, position not stated for this conjugate, linked to PEG4-MMAF) VH: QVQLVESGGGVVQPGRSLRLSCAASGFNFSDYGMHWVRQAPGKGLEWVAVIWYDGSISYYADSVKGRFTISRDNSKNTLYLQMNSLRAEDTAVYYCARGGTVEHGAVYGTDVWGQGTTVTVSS VL: DIQMTQSPSSVSASVGDRVTITCRASQGIGSWLAWYQQKPGKAPKLLIYAADRLQSGVPSRFSGSGSGTDFTLTISSLQPEDFATYYCQQYHTYPLTFGGGTKVEIK")
47
>>> value_reported("Conjugate B (anti-CD74 IgG-PEG4-maytansine conjugate) (antibody, V domains shown, here or on the partner: modified amino acid residue 30 (pAMF) according to Example 2, position not stated for this conjugate, linked to a PEG4-maytansine linker-payload) VH: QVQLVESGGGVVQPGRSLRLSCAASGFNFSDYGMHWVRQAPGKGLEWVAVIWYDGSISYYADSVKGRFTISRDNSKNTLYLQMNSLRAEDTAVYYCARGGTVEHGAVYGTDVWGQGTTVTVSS VL: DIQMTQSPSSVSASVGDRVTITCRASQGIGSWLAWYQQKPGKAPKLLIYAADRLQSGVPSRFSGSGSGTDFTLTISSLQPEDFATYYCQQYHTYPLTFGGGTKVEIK")
69

Data request: Which cell killing Span, JVM-13 (CLL) cells reading was recorded for the binder Conjugate C (anti-CD74 IgG-val-cit-PAB-hemiasterlin conjugate) (antibody, V domains shown, here or on the partner: modified amino acid residue 30 (pAMF) according to Example 2, position not stated for this conjugate, linked to val-cit-PAB-hemiasterlin) VH: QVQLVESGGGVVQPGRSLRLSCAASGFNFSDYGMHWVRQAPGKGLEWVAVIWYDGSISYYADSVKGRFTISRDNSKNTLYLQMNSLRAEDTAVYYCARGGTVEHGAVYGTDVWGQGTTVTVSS VL: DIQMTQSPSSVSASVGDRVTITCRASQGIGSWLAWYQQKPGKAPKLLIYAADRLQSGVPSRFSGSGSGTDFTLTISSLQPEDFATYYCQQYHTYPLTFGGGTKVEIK ?
Data returned: 54
